# STUDY SYSTEM: Histone deacetylase 9 (Homo sapiens, UniProt Q9UKV0)
# Sequence (Q9UKV0 whole entry): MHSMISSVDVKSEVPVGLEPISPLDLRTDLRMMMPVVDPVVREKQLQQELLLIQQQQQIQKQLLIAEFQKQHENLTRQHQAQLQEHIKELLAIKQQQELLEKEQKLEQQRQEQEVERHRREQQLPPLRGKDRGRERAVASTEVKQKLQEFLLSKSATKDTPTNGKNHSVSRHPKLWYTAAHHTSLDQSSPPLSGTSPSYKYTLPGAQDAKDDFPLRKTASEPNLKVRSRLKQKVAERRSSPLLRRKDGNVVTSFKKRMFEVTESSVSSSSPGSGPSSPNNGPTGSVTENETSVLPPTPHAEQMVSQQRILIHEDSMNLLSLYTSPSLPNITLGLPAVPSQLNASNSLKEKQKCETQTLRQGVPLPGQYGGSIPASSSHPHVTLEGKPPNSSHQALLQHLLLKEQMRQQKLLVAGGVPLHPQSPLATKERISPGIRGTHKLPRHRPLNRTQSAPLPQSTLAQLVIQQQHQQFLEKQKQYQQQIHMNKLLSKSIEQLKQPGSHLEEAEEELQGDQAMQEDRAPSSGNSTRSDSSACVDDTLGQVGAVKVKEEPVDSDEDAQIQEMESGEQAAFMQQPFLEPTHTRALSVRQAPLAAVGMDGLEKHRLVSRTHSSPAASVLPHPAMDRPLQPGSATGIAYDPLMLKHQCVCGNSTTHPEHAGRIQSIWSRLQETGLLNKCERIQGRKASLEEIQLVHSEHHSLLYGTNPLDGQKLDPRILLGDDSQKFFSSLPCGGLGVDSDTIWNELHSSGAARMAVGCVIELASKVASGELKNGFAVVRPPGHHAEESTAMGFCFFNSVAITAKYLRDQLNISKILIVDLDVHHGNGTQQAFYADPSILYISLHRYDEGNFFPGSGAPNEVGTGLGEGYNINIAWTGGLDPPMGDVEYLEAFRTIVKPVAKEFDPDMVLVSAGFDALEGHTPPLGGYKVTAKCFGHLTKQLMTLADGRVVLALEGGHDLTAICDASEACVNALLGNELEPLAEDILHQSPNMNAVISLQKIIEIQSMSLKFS
ENDPOINT LABEL: IC50

Problem: Give IC50 for this entry on Histone deacetylase 9 (Homo sapiens, UniProt Q9UKV0): CCN1CCN(C(c2cccnc2)c2cc(Cl)c3cccnc3c2O)CC1 (stereo unspecified)
Solution: 1.88 µM
